# Test system: SF-539 CNS
# Protocol summary: NCI tumour cell line growth inhibition, 48 h
Could you please classify the records by TGI using these ranges: category 1 = under 10 µM, category 2 = from 10 µM up to 30 µM, category 3 = 30 µM and over

Example entries and their recorded answers appear below.
- O=S(=O)(O)c1cc(N=Nc2c(O)ccc3ccccc23)cc2c(S(=O)(=O)O)cccc12: category 3
- COC(=O)[C@]1(C)CCC[C@@]2(C)C1CC[C@@]13C=C(C(C)C)[C@@H](CC1=O)CC23 (stereo partly specified): category 3

Now take the following compound into account.
[ask] Dear colleague, I would appreciate it if you could identify the bin for CC(=O)OCc1ccc2c(c1)C(O)NC(=O)O2 (stereo unspecified) and reply at your convenience.
[reply] category 3

---

# System: CAKI-1 renal
# Protocol summary: NCI tumour cell line growth inhibition, 48 h
Observed property: TGI

// solved cases for TGI follow
* N#CC(C(=O)CCC(=O)Nc1ccc(Cl)c(Cl)c1)c1ccccc1 (stereo not given) | > 100 µM
* O=C1C(C(Nc2ccccc2)c2ccccc2)=C([O-])c2ccccc21.O=C1C(C(Nc2ccccc2)c2ccccc2)=C([O-])c2ccccc21.[Cu+2] (stereo not given) | > 100 µM
* COc1ccc(CN2C(=O)C(Cl)=C(Nc3cccc(C(F)(F)F)c3)C2=O)cc1 | 24.4 µM

[ask] Let me know recorded TGI for O=C(Nc1c(O)[nH]c(=S)[nH]c1=O)c1ccccc1 , thanks.
[reply] > 100 µM

[ask] Let me know recorded TGI for O=c1c(F)cn(Cc2c(Cl)cccc2Cl)c(=O)n1Cc1c(Cl)cccc1Cl , thanks.
[reply] > 31.6 µM

---

# Test system: M14 melanoma
# Protocol summary: NCI tumour cell line growth inhibition, 48 h
Observed property: GI50

// solved cases for GI50 follow
• c1ccc(-c2n(Cc3ccc4ccccc4n3)cc[n+]2Cc2ccc3ccccc3c2)cc1 = 1.25 µM
• O=C(Nc1cccc(C(F)(F)F)c1)Nc1cccc(C(F)(F)F)c1 = 1.32 µM
• O=[N+]([O-])c1cc([N+](=O)[O-])c(C(F)(F)F)cc1NN=C(c1ccc(O)cc1)c1ccc(O)cc1 = 3.18 µM
• O=C(Nc1nn2c(-c3cc(C(F)(F)F)cc(C(F)(F)F)c3)nnc2s1)C1CCCC1 = 0.957 µM

Moving on to the next compound.
[ask] Let me know recorded GI50 for c1ccc(Nc2ncc(-c3ccccc3)o2)cc1 , thanks.
[reply] > 25 µM

---

Each entry below carries its reported TGI.
# Test system: MDA-MB-435
# Protocol summary: NCI tumour cell line growth inhibition, 48 h
Form entry: value (µM) — number only.

// solved cases for TGI follow
* CC(C)(C)[Si](C)(C)OC1[C@@H](O[Si](C)(C)C(C)(C)C)[C@@H](CNC(=O)NC(=O)C(F)(F)F)O[C@H]1n1cnc2c(NC(=O)Nc3ccccc3)ncnc21 (stereo partly specified) | 16.4
* CN(C)CC(O)c1ccc(/C=C/c2ccc(Cl)cc2)cc1 (stereo unspecified) | 3.13
* COc1ccc(CN2C(=O)C(Cl)=C(Nc3cccc(C(F)(F)F)c3)C2=O)cc1 | 9.12

[ask] Let me know recorded TGI for C=C1C(=O)O[C@@H]2/C=C(C)/C=C\[C@@H]3O[C@@]3(C)C[C@@H](O)C12 (stereo partly specified) , thanks.
[reply] 39.6

[ask] Let me know recorded TGI for COc1cc(-c2nn(-c3cccc(NC(=O)c4ccccc4)c3)cc2-c2ccncc2)ccc1Cl , thanks.
[reply] 0.508

[ask] Let me know recorded TGI for C=C1C[C@H](O)[C@H](Br)C(C)(C)[C@@]12CCC(C)=C(Cl)C2 , thanks.
[reply] 1.72

[ask] Let me know recorded TGI for O=[N+]([O-])c1ccc2nc(Nc3ccccc3)c(Nc3ccccc3)nc2c1 , thanks.
[reply] 4.4

---

# Test system: U251 CNS
# Protocol summary: NCI tumour cell line growth inhibition, 48 h
Observed property: TGI

* CC(=O)OCCOCNC(=S)N/N=C/c1ccc([N+](=O)[O-])o1 | > 100 µM
* S=P1(Oc2ccccc2)NNP2(=NP(N3CC3)(N3CC3)=NP(N3CC3)(N3CC3)=N2)NN1 (stereo not given) | > 100 µM
* O=C(O)C1C2c3ccccc3C(c3ccccc32)C1C(=O)NCC1CC1 (stereo not given) | > 100 µM
* CO[C@](C(=O)OC[C@H]1[C@@H](COC(C)=O)[C@@H]2O[C@H]1c1cc3c(cc12)OCO3)(c1ccccc1)C(F)(F)F | > 100 µM

[ask] Let me know recorded TGI for COCOC1/C=C/CCCCC(=O)C(C)C#CC1 (stereo not given) , thanks.
[reply] 28 µM

---

# Tested on: MDA-N
# Protocol summary: NCI tumour cell line growth inhibition, 48 h
Observed property: TGI

// solved cases for TGI follow
- O=C1c2ccccc2-n2nnnc2C2CSCN12 (configuration not stated): > 100 µM
- COc1ccc(S(=O)(=O)n2c3c(c4ccccc42)[C@@H]2[C@@H](CCCN2C(=O)CS(=O)c2ccc(C)cc2)[C@H](Cl)C3)cc1 (some centres not stated): > 100 µM
- Cc1cn(C2OC(CO[Si](C)(C)C(C)(C)C)C(N(C)O[Si](C)(C)C(C)(C)C)C2[Se]c2ccccc2)c(=O)[nH]c1=O (configuration not stated): > 100 µM
- COC(=O)[C@]1(C)CCC[C@@]2(C)C1CC[C@@]13C=C(C(C)C)[C@@H](CC1=O)CC23 (some centres not stated): > 100 µM
- CC(C)(CN1CCCCC1)C(/C=C/c1ccc(Cl)cc1)=N\NC(=O)N/N=C(/C=C/c1ccc(Cl)cc1)C(C)(C)CN1CCCCC1: 10.7 µM

[ask] Let me know recorded TGI for Cc1ccc2nc(-c3ccccc3)cc(=O)n2c1 , thanks.
[reply] > 100 µM

[ask] Let me know recorded TGI for C/C(=N\NC(N)=S)c1ccc2c(c1)Sc1ccccc1O2 , thanks.
[reply] 2.31 µM

[ask] Let me know recorded TGI for CC1(C)[C@@H](Cn2cc(I)c(=O)[nH]c2=O)CC[C@@]1(C)CO , thanks.
[reply] > 100 µM

[ask] Let me know recorded TGI for N#Cc1nc(-c2cnccn2)oc1N , thanks.
[reply] > 100 µM

[ask] Let me know recorded TGI for CCOC(=O)C(=[N+]=[N-])C(=O)CN1C(=O)c2ccccc2C1=O , thanks.
[reply] > 100 µM

[ask] Let me know recorded TGI for CC(=O)CC1CCC(=O)/C=C/C(=O)OC(CC(C)=O)CCC(=O)/C=C/C(=O)O1 (configuration not stated) , thanks.
[reply] 24 µM

[ask] Let me know recorded TGI for CCCCCCc1cc2cc(-c3cn4ccsc4n3)c(=O)oc2cc1O , thanks.
[reply] > 22.8 µM

[ask] Let me know recorded TGI for CC(C)=C[C@H]1C[C@H](C)[C@H]2CC[C@H](C)c3c2c1c(C)c1ncoc31 , thanks.
[reply] 34.2 µM

[ask] Let me know recorded TGI for O=C1c2cc3c(cc2CC12Cc1ccc4c(c1C2=O)CCC4)CCCC3 (configuration not stated) , thanks.
[reply] > 100 µM

[ask] Let me know recorded TGI for Cc1ccc(S(=O)(=O)N2C3C=CC(C3)[C@@H]2C(Cl)(Cl)Cl)cc1 (some centres not stated) , thanks.
[reply] 86.9 µM

[ask] Let me know recorded TGI for O=C1/C(=C/c2ccco2)NC(=S)N1CN1CCCCC1 , thanks.
[reply] > 100 µM

[ask] Let me know recorded TGI for Cc1[nH]c(=O)nc2sc(=NC3CCCCC3)n(C3CCCCC3)c(=O)c12 , thanks.
[reply] > 100 µM

[ask] Let me know recorded TGI for CO[C@](C(=O)OC[C@H]1[C@@H](COC(C)=O)[C@@H]2O[C@H]1c1cc3c(cc12)OCO3)(c1ccccc1)C(F)(F)F , thanks.
[reply] > 100 µM

[ask] Let me know recorded TGI for O=C1/C(=C\c2ccc(Cl)cc2Cl)Sc2scc(-c3ccc(O)c(O)c3)[n+]21 , thanks.
[reply] 60.1 µM

[ask] Let me know recorded TGI for C=C(C)C(=O)O[C@@H]1C[C@@]2(C)O[C@@H]2C[C@H](O)/C(C)=C/[C@H]2OC(=O)C(=C)[C@@H]21 , thanks.
[reply] > 100 µM

[ask] Let me know recorded TGI for C[C@]12c3c4cc(NC(=O)C(=O)NCc5ccc(-c6ccccn6)nc5)cc3Oc3cc(NC(=O)C(=O)NCc5ccc(-c6ccccn6)nc5)cc(c31)OC1C=C(NC(=O)C(=O)NCc3ccc(-c5ccccn5)nc3)C=C(O4)C12 (some centres not stated) , thanks.
[reply] > 100 µM

[ask] Let me know recorded TGI for O=[N+]([O-])c1ccc2nc(Nc3ccccc3)c(Nc3ccccc3)nc2c1 , thanks.
[reply] 2.23 µM

[ask] Let me know recorded TGI for C=C1C(=O)O[C@@H]2/C=C(C)/C=C\[C@@H]3O[C@@]3(C)C[C@@H](O)C12 (some centres not stated) , thanks.
[reply] > 100 µM

[ask] Let me know recorded TGI for CSC(=O)c1sc(SC)[n+](-c2ccccc2)c1O , thanks.
[reply] 37.1 µM

[ask] Let me know recorded TGI for C(=C/CCCN1O[C@@H](CCCCCCCCc2cccnc2)[C@H]2CCC[C@H]21)/CCCCCCCCCc1cccnc1 , thanks.
[reply] 71.9 µM

[ask] Let me know recorded TGI for C[C@]12[C@@H]3CC[C@H]1[C@@H](O)C(=O)N2CC3 , thanks.
[reply] > 100 µM

[ask] Let me know recorded TGI for CC(C)C(NC(=O)Oc1ccccc1)C(=O)NC1c2c(Br)sc(Br)c2C(=O)C1O (configuration not stated) , thanks.
[reply] > 25 µM
